Data credit: patent US8084228B2

System: HUVEC
Assay: Binding of AP fusion proteins to the surface of HUVEC
Set-up: species or system human
Settings: HUVEC (FIGS. 12, 15)
Description: To detect AP-Am-Nogo-B binding, cultures were washed with Hanks' balanced salt solution (HBSS) containing 20 mM HEPES, pH 7.5, and 1 mg/mL BSA (HBH). […] The bound AP-Am-Nogo-B was detected by using the Blue Substrate kit (Vector Laboratories). […] Alternatively, the bound AP-Am-Nogo-B was extracted with Triton X-100, and AP activity was colorimetrically quantified by using p-nitrophenyl phosphate (Sigma) as substrate after heat inactivation of endogenous AP. […]
observation_type: surface binding of AP fusion domains to HUVEC

AP-Nogo-66: AP fusion of Nogo-66, a 66 amino acid residue loop in the RHD (protein, left off: large carriers, AP fusion of Nogo-66, a 66 amino acid residue loop in the RHD) RIYKGVIQAIQKSDEGHPFRAYLESEVAISEELVQKYSNSALGHVNCTIKELRRLFLVDDLVDSLK : did not bind
AP-Nogo-A (59-172): AP fusion with biologically active domain 59-172 of Nogo-A (protein, left off: large carriers) PAAGLSAAPVPTAPAAGAPLMDFGNDFVPPAPRGPLPAAPPVAPERQPSWDPSPVSSTVPAPSPLSAAAVSPSKLPEDDEPPARPPPPPPASVSPQAEPVWTPPAPAPAAPPST : did not bind
